system: SK-MEL-5 melanoma; test: NCI tumour cell line growth inhibition, 48 h
Decide by TGI: equal to or exceeding 3 µM means t, less means f.

Quick check, TGI >= 3 µM? "COc1ccc2nc3cc([N+](=O)[O-])ccc3c(NCCCN(C)C)c2c1"
f

For "Cc1noc(NC2=CC(=O)C(=O)c3ccccc32)c1C" then?
t

For "CCN(CC)CCNC(=O)c1cn2c(ccc3sc4ccccc4c(=O)c32)n1" then?
t

For "Cc1cc(C)c(NC(=S)NC(=O)c2ccccc2)cc1C" then?
t

For "CN(c1ccccc1Cl)S(=O)(=O)c1ccc([N+](=O)[O-])cc1" then?
t

For "CC/C=C(\C(=C/CC)[N+](=O)[O-])[N+](=O)[O-]" then?
t

For "C=C1C(=O)O[C@@H]2C=C(C)C3=CC(=O)[C@](C)(C[C@H](OC(=O)/C(C)=C\C)[C@@H]12)O3" then?
f

For CC(C)(C)[Si](C)(C)OC1[C@@H](O[Si](C)(C)C(C)(C)C)[C@@H](CNC(=O)NC(=O)CCl)O[C@H]1n1cnc2c(NC(=O)Nc3ccccc3)ncnc21 (stereo not given in full) then?
f

For "NNC(=O)c1nnn(CCc2ccccc2)c1C(=O)NN" then?
t

* * *

For each of the molecules below, state its GI50.
tested on: NCI/ADR-RES ovarian; experiment: NCI tumour cell line growth inhibition, 48 h

Which GI50 is listed for "COc1cccc(NC(=O)c2sc3nc4c(cc3c2N)C(=O)CCC4)c1" ?
0.102 µM

For "N#CC1=C(N)NC(N2CCOCC2)=NC12Nc1ccccc1N2" then?
28.3 µM

For OCC(O)c1nc2ccc3[nH]ncc3c2c2c1CCCC2 (stereo unspecified) then?
1.34 µM

For "COc1ccccc1CNCCCN1C(=O)c2ccc3c4c(ccc(c24)C1=O)C(=O)N(CCCCNCCCN)C3=O" then?
5.98 µM

For "O=C1/C(=C\c2ccccn2)c2ccccc2N1c1c(Cl)cccc1Cl" then?
2.51 µM

For "COc1ccc(OC)c2c1[nH]c(=O)c1c3ncccc3cn21" then?
2.56 µM

For "O=Cc1ccc(-c2ccc(-c3nc4ccccc4o3)cc2)o1" then?
18.3 µM

For CCOC(=O)CC1C(COC(=O)NC)OC(n2cnc3c(NC(=O)Nc4ccccc4)ncnc32)C1O[Si](C)(C)C(C)(C)C (stereo unspecified) then?
9.18 µM

For "CC(C)(C)CC(C)(C)NCc1cc(C(C)(C)C)cc(CNC(C)(C)CC(C)(C)C)c1O" then?
2.81 µM

For "Nc1nc(Cl)c(N=Nc2ccc(Cl)cc2)c(NCC2(CO)CCC2)n1" then?
41.8 µM

For "NC(=O)c1cccc(Nc2nccc(Nc3cccc4[nH]ncc34)n2)c1" then?
> 25 µM

For "O=C(Nc1ccc(-n2ccc3c(NC(=O)c4ccccc4)ncnc32)cc1)Nc1cccc(Cl)c1Cl" then?
1.58 µM

For "Cc1cc(C)c(Cn2cnc3c(Cl)ncnc32)c(C)c1CCl" then?
> 100 µM

For "COC(=O)Cc1ccc(Oc2cnc3cc(F)c(F)cc3n2)cc1" then?
23.8 µM

For "COc1ccc2c(c1)CC[C@H](O)/C2=C/c1cc(OC)c(OC)c(OC)c1" then?
0.0639 µM

For "COc1ccc(/C=N\Nc2ccc([N+](=O)[O-])cn2)cc1OC" then?
> 100 µM

* * *

system: SF-539 CNS; experiment: NCI tumour cell line growth inhibition, 48 h
recorded_metric: TGI

Which TGI is listed for "O=c1c(=O)c2c(Br)sc(Br)c2c1=O" ?
35.3 µM

For "COc1cc2c(=O)cnoc2cc1O" then?
> 100 µM

For OCC(O)c1nc2ccc3[nH]ncc3c2c2c1CCCC2 (stereo not given) then?
2.4 µM

For "CCOC(=O)/C(C#N)=C/c1ccnc2ccccc12" then?
50 µM

For "CC(=O)On1c(-c2ccccc2-c2nc3ccccc3n2OC(C)=O)nc2ccccc21" then?
> 100 µM

* * *

tested on: NCI/ADR-RES ovarian; experiment: NCI tumour cell line growth inhibition, 48 h
For each of the compounds below, state its TGI.
Provide only the numeric value, understood in µM.

Which TGI is listed for CN(Cc1cc(Cl)cc(Cl)c1)CC(C(=O)c1ccccc1)c1ccccc1 (stereo not drawn) ?
5.45

For "C=C1C(=O)O[C@@H]2C=C(C)C3=CC(=O)[C@](C)(C[C@H](OC(=O)/C(C)=C\C)[C@@H]12)O3" then?
3.64

For "Cc1cn([C@@H]2O[C@H](CO[Si](C)(C)C(C)(C)C)[C@]3(O[C@H]3C(=O)NN)[C@H]2O[Si](C)(C)C(C)(C)C)c(=O)[nH]c1=O" then?
33

For "CC(C)(C)CC(C)(C)NCc1cc(C(C)(C)C)cc(CNC(C)(C)CC(C)(C)C)c1O" then?
11.7

* * *

tested on: MOLT-4 leukemia; test: NCI tumour cell line growth inhibition, 48 h
recorded_metric: GI50

Which GI50 is listed for Cc1cc(N2CCSCC2)nc(NC2CCCC(Nc3ccnc4cc(Cl)ccc34)C2)n1 (stereo not given) ?
1550 nM

For "CCN(CC)CCCNC(=O)c1c2c(n3ccccc13)C(=O)c1ncccc1C2=O" then?
604 nM

For CCN(CC)CCCC(C)N=C(C1=C(C(=NC(C)CCCN(CC)CC)c2cccc(OC)c2)C(=O)NC1=O)c1cccc(OC)c1 (stereo not given) then?
1330 nM

For "COc1cccc(NC(=O)c2sc3nc4c(cc3c2N)C(=O)CCC4)c1" then?
553 nM

For "CCn1c(-c2cc3ccccc3cc2O)nn(C(=O)c2c(Cl)cccc2Cl)c1=S" then?
34600 nM

* * *

system: MALME-3M melanoma; assay: NCI tumour cell line growth inhibition, 48 h; in the data active means GI50 below about 0.43 µM; inactive means the rest
Answer with one of the outcomes given here: yes = active, no = inactive

Tell me the recorded outcome of this test for "O=Cc1ccc(-c2ccc(-c3nc4ccccc4o3)cc2)o1" .
no

For CCC(CNc1cc(OC)cc2cccnc12)NC1CCCCC1 (configuration not stated) then?
no

For OCC(O)c1nc2ccc3[nH]ncc3c2c2c1CCCC2 (configuration not stated) then?
no

For CCN(CC)CCCC(C)N=C(C1=C(C(=NC(C)CCCN(CC)CC)c2cccc(OC)c2)C(=O)NC1=O)c1cccc(OC)c1 (configuration not stated) then?
no

For "COc1cccc(NC(=O)c2sc3nc4c(cc3c2N)C(=O)CCC4)c1" then?
yes

For "CCN(CC)CCCNC(=O)c1c2c(n3ccccc13)C(=O)c1ncccc1C2=O" then?
yes

For "COc1ccc2nc3cc([N+](=O)[O-])ccc3c(NCCCN(C)C)c2c1" then?
no

* * *

test system: HS 578T breast; assay: NCI tumour cell line growth inhibition, 48 h
recorded_metric: TGI (µM)
Provide only the numeric value, understood in µM.

Which TGI is listed for "CCCCCCCCCCCCOCCCOP(=O)([O-])OCC[N+](C)(C)C" ?
57.7

For "Cc1cn2c(/C=N/N=C(N)N)c(-c3cccs3)nc2s1" then?
32.6

For Cc1ccc2nc(-c3ccc(N4C(=O)C(Cl)C4c4ccc(Cl)cc4)cc3)sc2c1 (stereo not given) then?
66.8

For C=C1CCC2C(C)(COC(=O)CC)C(OC(=O)CC)CCC2(C)C1C/C=C1/C(=O)OCC1OC(=O)CC (stereo not given) then?
25.5

For "COc1cc(Nc2nc3ccccc3cc2C(=O)Nc2ccc(F)c(F)c2)cc(OC)c1OC" then?
13.6

For "Cc1csc(/N=C\c2c(O)c3ccccc3oc2=O)n1" then?
94.5

For CC(C)(C)[Si](C)(C)OC1[C@@H](O[Si](C)(C)C(C)(C)C)[C@@H](CNC(=O)NC(=O)CCl)O[C@H]1n1cnc2c(NC(=O)Nc3ccccc3)ncnc21 (stereo not given in full) then?
12.5

For "CNC(=O)Cc1nc(-c2cccc(NS(=O)(=O)c3c(F)cccc3F)c2F)c(-c2ccnc(Nc3ccccc3)n2)s1" then?
43.7

For "O=S(=O)(/N=C(\NO)Nc1ccc(Cl)cc1)c1cccc2nsnc12" then?
85.6

For CCCCCCCCCCCCCCCCOC[C@@H](COC(c1ccccc1)(c1ccccc1)c1ccccc1)O[P+](=S)OC (stereo not given in full) then?
82.6

For CCOC(=O)C(Cc1cccn1C(=O)OC(C)(C)C)[N+](=O)[O-] (stereo not given) then?
75.9

* * *

For each of the compounds below, state its TGI.
system: SW-620 colon; test: NCI tumour cell line growth inhibition, 48 h

# value lookup — system SW-620 colon, readout TGI, item CC1C2(C)OC(=N)C(C#N)(C(c3cccc([N+](=O)[O-])c3)O2)C1(C#N)C#N (centres undefined)
31.3 µM

For CCCN(CCCC(NC(C)=O)C(=O)NCc1ccccc1)C(=O)NCCCl (centres undefined) then?
> 100 µM

For O=c1[nH]c2cc(Cl)ccc2nc1/C(=N\O)C(O)c1ccc([N+](=O)[O-])cc1 (centres undefined) then?
> 100 µM

For "O=C(CNc1ccccc1[N+](=O)[O-])Nn1c(-c2ccccc2)nc2ccccc2c1=O" then?
42.2 µM

For COc1ccc(-c2c3c(n(C4OC(COC(C)=O)C(OC(C)=O)C(OC(C)=O)C4OC(C)=O)c(=S)c2C#N)CC(C)(C)CC3=O)cc1 (centres undefined) then?
> 100 µM

For "Cn1c(=O)c2nc(-c3ccc(Cl)cc3)oc2n(C)c1=O" then?
> 100 µM

For "COc1ccc(C(=O)c2cc3c(N)c(C(=O)Nc4ccc(C)cc4)sc3nc2C)cc1" then?
> 100 µM

For Cc1cc(N2CCSCC2)nc(NC2CCCC(Nc3ccnc4cc(Cl)ccc34)C2)n1 (centres undefined) then?
3.77 µM

For CC(C)(C)[Si](C)(C)OC1[C@@H](O[Si](C)(C)C(C)(C)C)[C@@H](CNC(=O)NC(=O)CCl)O[C@H]1n1cnc2c(NC(=O)Nc3ccccc3)ncnc21 (some centres undefined) then?
1.36 µM

For CCOC(=O)CC1(c2cccc3ccccc23)OC(=O)c2ccccc21 (centres undefined) then?
> 100 µM

For CC1=NN(C(=O)c2ccc([N+](=O)[O-])cc2)C(=O)C1N=Nc1ccccc1C(=O)O (centres undefined) then?
> 100 µM

For "O=C(O)Cc1ccc2[nH]c(O)c(C3=Nc4ccccc4C3=O)c2c1" then?
> 100 µM

For "Cc1cc(C)c(Cn2cnc3c(Cl)ncnc32)c(C)c1CCl" then?
> 100 µM

For "Cc1ccc(N(CC(=O)Nc2ccc(S(=O)(=O)N3CCC(N4CCCC4)CC3)cc2)S(=O)(=O)c2ccc(Cl)cc2)cc1" then?
3.44 µM

For "CCc1cccc(CC)c1NC(=O)C1=C(C)NC(C)=C(C(=O)Nc2c(CC)cccc2CC)C1c1ccc([N+](=O)[O-])cc1" then?
59.1 µM

For "Cc1ccc(S(=O)(=O)NNC(=O)c2cc(C)c(C)cc2N)cc1" then?
> 100 µM

For "FC(F)(F)C1(Br)C(c2ccccc2)=C1c1ccccc1" then?
33.5 µM

For "Clc1ccc(C(SCc2ccccc2)SCc2ccccc2)cc1" then?
> 10 µM

For "CN(C)CCCn1nc(N)c2nc3cc(Cl)ccc3nc21" then?
> 100 µM
